Entry source: paper PMC9575645

Tested on: MARC
PROTOCOL_SUMMARY: Cytotoxicity, MTT assay, MARC
Type: cell-based, African green monkey
Property: CC50; scope: individual molecules
Numeric only. Scale: µM

{"columns": ["SMILES_STR", "OBSERVED_VALUE"],
 "data": [
  ["CN(C)C(=O)Nc1cccc(-c2ccc(N(C)C)cc2)c1", 212]
]}

Moving on to another molecule below.
So what does the record say about CC50 for `COc1nn(-c2ccc(NC(=O)OCc3ccccc3)c(C)c2)c(=O)o1` ?
101

----------
System: LLC-PK
PROTOCOL_SUMMARY: Cytotoxicity, MTT assay, LLC-PK
Format: cell-based, porcine
MEASUREMENT_LABEL: CC50
The number alone won't do; follow it with the unit.

{"columns": ["SMILES_STR", "CC50"],
 "data": [
  ["COc1nn(-c2ccc(NC(=O)OCc3ccccc3)c(C)c2)c(=O)o1", "109 µM"]
]}

So what does the record say about CC50 for `CN(C)C(=O)Nc1cccc(-c2ccc(N(C)C)cc2)c1` ?
224 µM
